Would you mind telling me the reported glycan array binding signal (z-score) of each entry?
target: Gal(b1-4)GlcNAc(b1-6)GalNAc; experiment: glycan array binding signal (z-score within array); higher = stronger binding; conditions: glycan notation: IUPAC condensed, linker removed
This excerpt belongs to a sample that is enriched for the strongest signals.
Numbers only.

For the 2 binders below, give their glycan array binding signal (z-score) values.
1. Erv41-EDTA (Saccharomyces cerevisiae), Q04651 (protein) MKFLVNVALVFMVVYISYIYAAAPEHHHHHHDYDIPTTENLYFQGAMGYIDQQYVVDSQVRDTVQINMDIYVNTKCDWLQINVRDQTMDRKLVLEELQLEEMPFFIPYDTKVNDINEIITPELDEILGEAIPAEFREKLDTRSFFDESDPNKAHLPEFNGCHVFGSIPVNRVSGELQITAKSLGYVASRKAPLEELKFNHVINEFSFGDFYPYIDNPLDNTAQFNQDEPLTTYVYYTSVVPTLFKKLGAEVDTNQYSVNDYRYLYKDVAAKGDKMPGIFFKYNFEPLSIVVSDVRL
2. SP15308B-bot-339-22-339 (Bacteroides ovatus) (protein) NEWEDEQYEQYVSFKAPIASGSDGVTTIYVRYKDNGKVTYQLPIIVSGSTVNSQDRDIHIAVDKDTLKTLNIERFSLYRPELWYTEMEEDKYEFPETVHIPAGSCVELLNIDFNLQDIDMLEKWVLPLTIVDDGSYAYQSHPRKNYAKALLKVVPFNNYSGSYTASSMKVYTYINGKPDTNARTTDKRTGYVVDNNSIFFYAGLINEDMDKDMRKKYKINVHFKEDGTLDMKQDDPSNEMEFELIGTPTYSSTSVMDATRPYLERRYVQIMFEYDFQDFTYGGSGTEVIPIKYRVAGSMTLLRNINTQIPDEDQQIEW

Response given:
1: 1.98; 2: 0.182
